Provenance of the data: patent US20100093719A1

# protocol.description: in vitro
metric.name: CC50

>>> experimental_result("CCCc1nc(C)c2c(=O)[nH]c(-c3cc(S(=O)(=O)N(C)C(C)(C)C(=O)N(C)C)ccc3OCC)nn12 [Compound 3]")
"≥ 100 µM"
>>> experimental_result("CCCc1nc(C)c2c(=O)[nH]c(-c3cc(S(=O)(=O)N[C@H](C)C(=O)N(C)C)ccc3OCC)nn12 [Compound 18]")
"≥ 100 µM"
>>> experimental_result("CCCc1nc(C)c2c(=O)[nH]c(-c3cc(S(=O)(=O)N(C)CC(=O)N(C)C)ccc3OCC)nn12 [Compound 1]")
"75 µM"

Problem: # return recorded CC50 for entry CCCc1nc(C)c2c(=O)[nH]c(-c3cc(S(=O)(=O)N[C@@H](C)C(=O)N(C)C)ccc3OCC)nn12 [Compound 17]
Result: ≥ 100 µM

---

# protocol.description: Solubility
# Type: physicochemical
# run.parameters: pH 2.7, aqueous buffer; read-out: Solubility pH 2.7
# maps each entry to its solubility

# annotated cases, reported solubility shown
>>> experimental_result("CCCc1nc(C)c2c(=O)[nH]c(-c3cc(S(=O)(=O)N[C@H](C)C(=O)N(C)C)ccc3OCC)nn12")
"70.3 µM"
>>> experimental_result("CCCc1nc(C)c2c(=O)[nH]c(-c3cc(S(=O)(=O)NC(C)(C)C(=O)N(C)C)ccc3OCC)nn12")
"> 100 µM"

Problem: # return recorded solubility for entry "CCCc1nc(C)c2c(=O)[nH]c(-c3cc(S(=O)(=O)N(C)CC(=O)N(C)C)ccc3OCC)nn12"
Result: > 100 µM

---

# protocol.description: PAMPA permeability
# Format: in vitro ADME
# run.parameters: Hex
metric.name: PAMPA Hex

# annotated cases, reported PAMPA Hex shown
>>> experimental_result("CCCc1nc(C)c2c(=O)[nH]c(-c3cc(S(=O)(=O)N(C)CC(=O)N4CCOCC4)ccc3OCC)nn12 [Compound 6]")
"0.78 10^−6"
>>> experimental_result("CCCc1nc(C)c2c(=O)[nH]c(-c3cc(S(=O)(=O)N(C)[C@@H](C)C(=O)N(C)C)ccc3OCC)nn12 [Compound 12]")
"13.93 10^−6"

Problem: # return recorded PAMPA Hex for entry CCCc1nc(C)c2c(=O)[nH]c(-c3cc(S(=O)(=O)N(CC)CC(=O)N(CC)CC)ccc3OCC)nn12 [Compound 10]
Result: 67.04 10^−6

Problem: # return recorded PAMPA Hex for entry CCCc1nc(C)c2c(=O)[nH]c(-c3cc(S(=O)(=O)N(C)[C@H](C)C(=O)N(C)C)ccc3OCC)nn12 [Compound 2]
Result: 18.2 10^−6

Problem: # return recorded PAMPA Hex for entry CCCc1nc(C)c2c(=O)[nH]c(-c3cc(S(=O)(=O)N(C)[C@H](C)C(=O)NC)ccc3OCC)nn12 [Compound 14]
Result: 0.47 10^−6

Problem: # return recorded PAMPA Hex for entry CCCc1nc(C)c2c(=O)[nH]c(-c3cc(S(=O)(=O)N(C)[C@@H](C)C(=O)NC)ccc3OCC)nn12 [Compound 13]
Result: 0.42 10^−6

Problem: # return recorded PAMPA Hex for entry CCCc1nc(C)c2c(=O)[nH]c(-c3cc(S(=O)(=O)N(C)CC(=O)N(C)CCN(C)C)ccc3OCC)nn12 [Compound 9]
Result: 0.03 10^−6

---

# Test system: Caco-2
# protocol.description: Caco-2 permeability
# Type: in vitro ADME
# run.parameters: AtoB
metric.name: Caco-2 AtoB

# annotated cases, reported Caco-2 AtoB shown
>>> experimental_result("CCCc1nc(C)c2c(=O)[nH]c(-c3cc(S(=O)(=O)N(C)CC(=O)N(C)CC(=O)N(C)C)ccc3OCC)nn12")
"2.97 10^−6"
>>> experimental_result("CCCc1nc(C)c2c(=O)[nH]c(-c3cc(S(=O)(=O)N(C)CC(=O)N(C)C)ccc3OCC)nn12")
"17.46 10^−6"
>>> experimental_result("CCCc1nc(C)c2c(=O)[nH]c(-c3cc(S(=O)(=O)N(C)C(C)(C)C(=O)NC)ccc3OCC)nn12")
"6.8 10^−6"
>>> experimental_result("CCCc1nc(C)c2c(=O)[nH]c(-c3cc(S(=O)(=O)NC(C)(C)C(=O)N(C)C)ccc3OCC)nn12")
"2.43 10^−6"
>>> experimental_result("CCCc1nc(C)c2c(=O)[nH]c(-c3cc(S(=O)(=O)N(C)[C@@H](C)C(=O)N(C)C)ccc3OCC)nn12")
"33.39 10^−6"

Kindly consider the entry below.
Problem: # return recorded Caco-2 AtoB for entry "CCCc1nc(C)c2c(=O)[nH]c(-c3cc(S(=O)(=O)N(C)CC(=O)N(CC)CC)ccc3OCC)nn12"
Result: 42.03 10^−6

---

# maps each entry to its pIC50
# system.tested: PDE-3
# protocol.description: Phosphodiesterase inhibition PDE-3
// returns pIC50 (minus log10 of molar concentration), number only

# annotated cases, reported pIC50 shown
>>> experimental_result("CCCc1nc(C)c2c(=O)[nH]c(-c3cc(S(=O)(=O)N(C)[C@H](C)C(=O)N(C)C)ccc3OCC)nn12")
6.29
>>> experimental_result("CCCc1nc(C)c2c(=O)[nH]c(-c3cc(S(=O)(=O)N(C)C(C)(C)C(=O)N(C)C)ccc3OCC)nn12")
6.39

Kindly consider the entry below.
Problem: # return recorded pIC50 for entry "CCCc1nc(C)c2c(=O)[nH]c(-c3cc(S(=O)(=O)N(C)CC(=O)N(C)C)ccc3OCC)nn12"
Result: 6.01

---

# protocol.description: Solubility
# Type: physicochemical
# run.parameters: pH 2.7, aqueous buffer; read-out: Solubility pH 2.7
# maps each entry to its solubility
Give the number; µM is assumed, so skip it.

# annotated cases, reported solubility shown
>>> experimental_result("CCCc1nc(C)c2c(=O)[nH]c(-c3cc(S(=O)(=O)N(C)C4(C(=O)N(C)C)CC4)ccc3OCC)nn12")
74.7
>>> experimental_result("CCCc1nc(C)c2c(=O)[nH]c(-c3cc(S(=O)(=O)N(C)CC(=O)N(C)CC(=O)N(C)C)ccc3OCC)nn12")
112

Kindly consider the entry below.
Problem: # return recorded solubility for entry CCCc1nc(C)c2c(=O)[nH]c(-c3cc(S(=O)(=O)N4CCCC4C(=O)N(C)C)ccc3OCC)nn12 (stereo not shown)
Result: 100

---

# maps each entry to its Caco-2 BtoA
# Tested on: Caco-2
# protocol.description: Caco-2 permeability
# Format: in vitro ADME
# run.parameters: BtoA

# annotated cases, reported Caco-2 BtoA shown
>>> experimental_result("CCCc1nc(C)c2c(=O)[nH]c(-c3cc(S(=O)(=O)N(C)CC(=O)N(C)CCN(C)C)ccc3OCC)nn12 [Compound 9]")
"11.31 10^−6"
>>> experimental_result("CCCc1nc(C)c2c(=O)[nH]c(-c3cc(S(=O)(=O)N(C)CC(=O)N4CCOCC4)ccc3OCC)nn12 [Compound 6]")
"55.15 10^−6"
>>> experimental_result("CCCc1nc(C)c2c(=O)[nH]c(-c3cc(S(=O)(=O)NC(C)(C)C(=O)N(C)C)ccc3OCC)nn12 [Compound 19]")
"33 10^−6"
>>> experimental_result("CCCc1nc(C)c2c(=O)[nH]c(-c3cc(S(=O)(=O)N(C)CC(=O)N(C)C)ccc3OCC)nn12 [Compound 1]")
"48.88 10^−6"
>>> experimental_result("CCCc1nc(C)c2c(=O)[nH]c(-c3cc(S(=O)(=O)N(C)CC(=O)NC)ccc3OCC)nn12 [Compound 21]")
"31.45 10^−6"

Problem: # return recorded Caco-2 BtoA for entry CCCc1nc(C)c2c(=O)[nH]c(-c3cc(S(=O)(=O)N(C)CC(=O)N4CCN(C)CC4)ccc3OCC)nn12 [Compound 7]
Result: 35.58 10^−6

Problem: # return recorded Caco-2 BtoA for entry CCCc1nc(C)c2c(=O)[nH]c(-c3cc(S(=O)(=O)N(C)[C@@H](C)C(=O)N(C)C)ccc3OCC)nn12 [Compound 12]
Result: 50.43 10^−6

---

# protocol.description: Cytotox GC50
# Assay type: cell-based
metric.name: Cytotox GC50 (µM)
Give the number; µM is assumed, so skip it.

# annotated cases, reported Cytotox GC50 shown
>>> experimental_result("CCCc1nc(C)c2c(=O)[nH]c(-c3cc(S(=O)(=O)N[C@@H](C)C(=O)N(C)C)ccc3OCC)nn12")
100
>>> experimental_result("CCCc1nc(C)c2c(=O)[nH]c(-c3cc(S(=O)(=O)N(C)[C@H](C)C(=O)NC)ccc3OCC)nn12")
88.0

Problem: # return recorded Cytotox GC50 for entry "CCCc1nc(C)c2c(=O)[nH]c(-c3cc(S(=O)(=O)N(C)[C@H](C)C(=O)N(C)C)ccc3OCC)nn12"
Result: 94.6

Problem: # return recorded Cytotox GC50 for entry "CCCc1nc(C)c2c(=O)[nH]c(-c3cc(S(=O)(=O)N(C)[C@@H](C)C(=O)N(C)C)ccc3OCC)nn12"
Result: 99.3
